Ref: PubChem BioAssay

Assay: growth inhibition, single agents and combos, LFS_MB_1R, cell-based, cisplatin or BGB combos, synergistic combos for chromothripsis tumors (AID 1671452);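 also: cells exposed for 96 hours before readout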
Settings: LFS_MB_1R medulloblastoma cells, measured here: combination with cisplatin, at 0.5 µM, stronger effect = higher value
Categories are assigned from the measured inhibition using these intervals: label 0: < -30%; label 1: ≥ -30% and < -10%; label 2: ≥ -10%

COMPOUND: Cc1cc(C=CC#N)cc(C)c1Nc1ccnc(Nc2ccc(C#N)cc2)n1
ASSIGNED CLASS: label 2

Q: Exercise: read the entry Cc1cn(C2C=CC(CO)O2)c(=O)[nH]c1=O (stereo not given) and state which class it falls under.
Ans: label 0

Q: Hi there! Could you help me figure out the category for COc1cccc2c1C(=O)c1c(O)c3c(c(O)c1C2=O)CC(O)(C(C)=O)CC3OC1CC(N)C(O)C(C)O1 (stereo not given) please?
Ans: label 2

Q: Textbook exercise: identify the category of the compound given here, CCC(Sc1nnc2c3ccccc3n(CC)c2n1)C(=O)Nc1ccccc1OC (stereo not given) , according to its measured value.
Ans: label 1

----------
Test: MELAS cybrid and Rieske KO viability enhancers – cell-based, MELAS cybrids, Rieske KO mouse fibroblasts, CellTiter-Glo, primary screen (AID 1508586);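 also: z relative to plate mean and SD of compound and empty wells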
Settings: MELAS cybrid survival, low glucose, CellTiter-Glo 48 h; stronger effect = higher value
# binarize z-score: threshold -0.3 inclusive, high side yes, low side no

COMPOUND: O=C(NCC1CCCO1)[C@@H]1C[C@H](CN2CCOCC2)CN(Cc2ccc3ccccc3c2)C1 (stereo not given in full)
ASSIGNED CLASS: no

COMPOUND: COc1ccc(NS(=O)(=O)c2sc3ccc(Cl)cc3c2C)cc1N1CCNCC1
ASSIGNED CLASS: no

COMPOUND: COc1cc(C=CC(=O)C=C(O)C=Cc2ccc(O)c(OC)c2)ccc1O
ASSIGNED CLASS: no

COMPOUND: CCOc1nc2cccc(C(=O)OCc3oc(=O)oc3C)c2n1Cc1ccc(-c2ccccc2-c2noc(=O)[nH]2)cc1
ASSIGNED CLASS: yes

With those in mind, consider the next compound.
Q: Please tell me: is the compound COc1ccc(CNC(=O)c2cc(NCc3nc[nH]c3C)cc(S(=O)(=O)N3CCCC3)c2)cc1 at or over -0.3 in terms of z-score?
Ans: no

----------
Test: CRL1545 cell growth, single agent and combined, cisplatin and BGB IC20 combos (AID 1671464);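 also: cells exposed to compound for 96 hours before readout; 0% = vehicle DMSO and 100% = high DMSO killing control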
Conditions: CRL1545 osteosarcoma cells, single agent, at 5 µM, stronger effect = higher value
Non-standard residues stand in square brackets, D forms with d. Residues, ends and D or L forms follow the SMILES beside them. Dolaproine = CO[C@@H]([C@@H]1CCCN1)[C@@H](C)C(=O)O; Dil = CC[C@H](C)[C@H](NC)[C@@H](CC(=O)O)OC; NMeV = CN[C@H](C(=O)O)C(C)C
MEASURED PARAMETER: inhibition (%)
Unit % implied. Number only.

MOLECULE: C[C@@H]1COCCN1c1cc(C2(S(C)(=O)=O)CC2)nc(-c2cccc3[nH]ccc23)n1
OBSERVED RESULT: 97.9

MOLECULE: Cc1cc(C)cc(C(=O)NOCCCCCC(=O)NO)c1
OBSERVED RESULT: 72.3

MOLECULE: CON=C1CN(c2nc3c(cc2F)c(=O)c(C(=O)O)cn3C2CC2)CC1CN (centres undefined)
OBSERVED RESULT: 16.8

The molecule listed as C=C(NC(=O)C(=C)NC(=O)c1csc(C2=NC3c4csc(n4)C4NC(=O)c5csc(n5)C(C(C)(O)C(C)O)NC(=O)C5CSC(=N5)/C(=C/C)NC(=O)C(C(C)O)NC(=O)c5csc(n5)C3(CC2)NC(=O)C(C)NC(=O)C(=C)NC(=O)C(C)NC(=O)C(C(C)CC)NC2C=Cc3c(C(C)O)cc(nc3C2O)C(=O)OC4C)n1)C(N)=O (centres undefined) has a reported inhibition of 100

Measured inhibition of O=c1ccn(C2CC(O)C(CO)O2)c(=O)[nH]1 (centres undefined) : -14.8

Recorded result, NC(=O)c1cccc2cn(-c3ccc(C4CCCNC4)cc3)nc12 (centres undefined) , inhibition: 30.1

For this molecule ( O=C(CCCCCCC(=O)NO)NO ), measured inhibition is -1.16

Per the records, this molecule ( C=C(C)C1CCC2(C(=O)O)CCC3(C)C(CCC4C5(C)CCC(O)C(C)(C)C5CCC43C)C12 (centres undefined) ) has inhibition equal to 16.8

For reference, reported inhibition for CCC1(O)C(=O)OCc2c1cc1n(c2=O)Cc2cc3cc(O)ccc3nc2-1 (centres undefined) stands at 99.4

For CC(C)C(=O)SCCCCCCC(=O)Nc1nc(-c2ccccc2)cs1 the molecule record lists inhibition as 46.6

Lab note: measured inhibition of Cc1cn(C2CC(O)C(COP(=O)(O)OP(=O)(O)OP(=O)(O)O)O2)c(=O)[nH]c1=O (centres undefined) was -18

inhibition in this record for O=C1C(=Cc2cccnc2)C(=O)c2ccccc21 : -28.3

Entry under test: CC[C@H](C)[C@@H]([C@@H](CC(=O)N1CCC[C@H]1[C@H](OC)[C@@H](C)C(=O)N[C@@H](Cc1ccccc1)C(=O)O)OC)N(C)C(=O)[C@@H](NC(=O)[C@@H](NC)C(C)C)C(C)C (H-[NMeV]V[Dil][Dolaproine]F-OH) . Its inhibition was 84.4

The reported value for Cc1c(Br)cc(NCC(=O)N/N=C/c2cc([N+](=O)[O-])ccc2O)cc1Br in terms of inhibition is 44.6

Lab book: inhibition of C=C1C(=O)O[C@@H]2C=C(C)CCC=C(C)CC[C@@H]12 noted as 72.3

molecule CC(C)(O)[C@H]1CC[C@@](C)(C2[C@@H](O)C[C@@]3(C)[C@@H]4C[C@H](O)C5C(C)(C)[C@@H](O)CCC56CC46CC[C@]23C)O1 (some centres undefined) , inhibition observed: -13

----------
Assay: CRL1545 cell growth, single agent and combined, cisplatin and BGB IC20 combos (AID 1671464);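 also: cells exposed to compound for 96 hours before readout; 0% = vehicle DMSO and 100% = high DMSO killing control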
Details: CRL1545 osteosarcoma cells, single agent, at 0.05 µM, stronger effect = higher value
Let's look at some compounds and their measured inhibition.
Express the result in % but write the number alone.

The cases that follow already have their inhibition on record.
COMPOUND: Cc1cc(C=CC#N)cc(C)c1Nc1ccnc(Nc2ccc(C#N)cc2)n1
UNIT SPEC: %
inhibition: 1.38
//
COMPOUND: Nc1nc(NC2CC2)cc(-c2cccc(Cl)c2Cl)n1
UNIT SPEC: %
inhibition: -25
//
COMPOUND: CC(=O)C1(O)Cc2c(O)c3c(c(O)c2C(OC2CC(N)C(O)C(C)O2)C1)C(=O)c1ccccc1C3=O (stereo not drawn)
UNIT SPEC: %
inhibition: 99.4

// recorded inhibition for CN(C)C(=S)NN=C(c1ccccn1)c1ccccn1 : 88.4

Notebook: Cc1c(Br)cc(NCC(=O)N/N=C/c2cc([N+](=O)[O-])ccc2O)cc1Br , inhibition read as -22.9

----------
Experiment: viability loss with induced miR-34 in A549 – imaging, A549 dox-inducible miR-34, nuclei and caspase counts, primary screen (AID 1347080)
Details: A549 miR-34 inducible, Hoechst nuclei count, 48 h; measured here: total cells with miR-34 induction; stronger effect = lower value
Listed compounds paired with reported cell count
Just the number, please, no unit attached.

For orientation, consider the following solved cases.
COMPOUND: CNc1nc(-c2cccc(OC)c2)ncc1F
OBSERVED RESULT: 8700

COMPOUND: C#C[C@@]1(O)CC[C@H]2[C@@H]3CCC4=CC(=O)CC[C@@H]4[C@@H]3CC[C@@]21CC
OBSERVED RESULT: 7310

COMPOUND: CC1(C)OC2C[C@H]3[C@@H]4CCC5=CC(=O)C=C[C@]5(C)[C@]4(F)C(O)C[C@]3(C)[C@@]2(C(=O)CO)O1 (stereo not given in full)
OBSERVED RESULT: 5100

COMPOUND: O=c1cc(-c2ccncc2)nc(-c2cccc(CN3CCCC(CO)C3)c2)[nH]1 (stereo not given)
OBSERVED RESULT: 8470

COMPOUND: CC1(C)S[C@H]2C(NC(=O)C(N)c3ccccc3)C(=O)N2C1C(=O)O (stereo not given in full)
OBSERVED RESULT: 8130

Input CN/C(=C/[N+](=O)[O-])NCCSCc1csc(CN(C)C)n1 . Output cell count: 9080

Just so you know, measured cell count for CC1(C)S[C@@H]2[C@H](NC(=O)[C@@H](N)c3ccc(O)cc3)C(=O)N2[C@H]1C(=O)O came out at 11000

Just so you know, measured cell count for O=C1C2CCCCC2C(=O)N1CCCCN1CCN(c2nsc3ccccc23)CC1 (stereo not given) came out at 7810

cell count for C[C@]12CC[C@H]3c4ccc(O)cc4CC[C@H]3[C@@H]1CCC2=O is 7600

For this compound ( OCC(CO)NC1C[C@@](O)(CO)C(O)C(O)C1O (stereo not given in full) ), measured cell count is 8490
